target: T1, cynomolgus monkey BCMA (cynomolgus monkey, UniProt A0A2K5UD97 1-53); assay: SPR, IgG on chip, cyBCMA analyte, 37C
T1 construct: Soluble analyte in SPR; construct not described; also called cyBCMA; Cyno BCMA
T1 sequence (A0A2K5UD97 entry or part of it): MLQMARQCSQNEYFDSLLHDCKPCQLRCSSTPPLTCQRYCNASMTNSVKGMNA
measured-parameter: kon
Answer as a quantity: numeral, then unit.

[[record]]
binder = "L3.PY/L3.KY/H2.DY (antibody, V domains shown, IgG) VH: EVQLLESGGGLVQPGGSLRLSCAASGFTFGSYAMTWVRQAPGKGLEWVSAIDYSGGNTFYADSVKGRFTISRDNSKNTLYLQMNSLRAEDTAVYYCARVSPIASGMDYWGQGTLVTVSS VL: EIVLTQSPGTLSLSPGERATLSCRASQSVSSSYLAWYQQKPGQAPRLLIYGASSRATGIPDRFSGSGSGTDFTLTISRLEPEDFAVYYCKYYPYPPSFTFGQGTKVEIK"
measured_parameter = "kon"
measured = "1.96e+06 M⁻¹ s⁻¹"


The record that follows has no kon shown yet.
Quick one: kon of L3.PY/L1.FF/H2.YQ (antibody, V domains shown, IgG) VH: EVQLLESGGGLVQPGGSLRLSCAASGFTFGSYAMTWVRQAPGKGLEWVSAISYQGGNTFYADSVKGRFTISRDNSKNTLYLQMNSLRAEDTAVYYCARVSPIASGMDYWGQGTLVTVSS VL: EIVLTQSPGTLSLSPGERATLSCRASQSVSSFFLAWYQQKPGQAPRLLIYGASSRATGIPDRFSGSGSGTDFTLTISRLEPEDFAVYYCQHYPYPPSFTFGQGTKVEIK ?
2.19e+06 M⁻¹ s⁻¹
